Entry source: PubChem BioAssay (NCI)

test system: SF-295 CNS; assay: NCI tumour cell line growth inhibition, 48 h
// values below are reported TGI

Example results:
| compound | system | test.value |
| --- | --- | --- |
| C=CCC1(O)c2cccc(O)c2C(=O)c2c(O)cccc21 | SF-295 CNS | > 100 µM |
| CC(=O)N1c2ccccc2C23CCN4CC5=CCOC(O)C(C5CC42)C13 (stereo not drawn) | SF-295 CNS | > 100 µM |
| C[n+]1c2ccccc2c(NC(CCC(N)=O)C(=O)O)c2ccccc21 (stereo not drawn) | SF-295 CNS | > 100 µM |
| CC(=O)Oc1ccc(-c2cc3ccccc3oc2=O)cc1OC(C)=O | SF-295 CNS | 67.9 µM |
| CN1c2ccccc2C2c3c(O)ccc(O)c3C=C([N+](=O)[O-])C21 (stereo not drawn) | SF-295 CNS | 8.29 µM |

*Q* Requested field: TGI. Item: O=S(=O)(Nc1ccc(Cl)c(C(F)(F)F)c1)c1ccc(-c2cnc(C3CC3)o2)cc1
*A* 2.12 µM

*Q* Next compound up: Cc1cc(NC(=O)CCc2ccc(N3C(N)=NC(N)=NC3(C)C)cc2)ccc1S(=O)(=O)F
*A* > 100 µM

*Q* Next compound up: N#Cc1c(NC(=O)CCC(=O)O)ccc2ccccc12
*A* > 100 µM

*Q* Next compound up: CCOc1ccc(N=Cc2cc(OC)c(OC)c(OC)c2)cc1
*A* > 100 µM

*Q* Next compound up: O=C(C#Cc1c[nH]c(=O)[nH]c1=O)c1ccccc1
*A* > 100 µM

*Q* Next compound up: O=C(O)/C(=C\c1ccccc1)Cc1ccccc1
*A* > 100 µM

*Q* Next compound up: CC[n+]1[b-](C(C)(C)C)n(/N=C(\C)C(C)(C)C)[b-](C(C)(C)C)[n+]1CC
*A* > 100 µM

*Q* Next compound up: CC(=O)CN=C(C)NNc1ccc([N+](=O)[O-])cc1[N+](=O)[O-]
*A* > 100 µM

*Q* Next compound up: N#Cc1c(N2CCOCC2)ncn(-c2ccccc2)c1=O
*A* > 100 µM

*Q* Next compound up: C=C1CC(OC)(C(O)C(=O)N[C@H]2OCO[C@H]3C2O[C@H](C[C@@H](CO)OC)C(C)(C)C3OC)O[C@H](C)[C@@H]1C (stereo partly drawn)
*A* < 0.00932 µM

*Q* Next compound up: OCCOCCO[P+]1(OCCOCCO)n2c3ccc2C(c2ccccc2)=C2C=CC(=N2)C(c2ccccc2)=c2ccc(n21)=C(c1ccccc1)C1=NC(=C3c2ccccc2)C=C1
*A* 1.03 µM

*Q* Next compound up: O=C1Nc2ccccc2SC1C1SC(=S)N(Cc2ccccc2)C1=O (stereo not drawn)
*A* 40.2 µM

*Q* Next compound up: CCOC(=O)c1c(C)c2c(n1C)CSc1cc(S(=O)(=O)c3ccccc3)c(=O)[nH]c1-2
*A* 61.9 µM

*Q* Next compound up: COc1ccc2[nH]cc(/C=C3\C(=O)Nc4ccccc43)c2c1
*A* 30 µM

*Q* Next compound up: CCCCCCCCCCCCCCCCCCNc1ccn(C2OC(CO)C(OP(=O)(O)OCC3CCC(n4ccc(N)nc4=O)O3)C2O)c(=O)n1 (stereo not drawn)
*A* > 100 µM

*Q* Next compound up: N/C(=N\C(=S)N1CCCCC1)N1CCCCC1
*A* > 100 µM

*Q* Next compound up: COc1cc2cc(C(=O)O)[nH]c2cc1OCc1ccccc1
*A* > 100 µM

*Q* Next compound up: CC(=O)OC1CC(OC2C(O)CC(OC3C(O)CC(OC4CCC5(C)C(CCC6C5CC(O)C5(C)C(C7=CC(=O)OC7)CCC65O)C4)OC3C)OC2C)OC(C)C1O (stereo not drawn) (tested in a mixture with another compound)
*A* 0.133 µM

*Q* Next compound up: CC1=CCC2(C#N)CCC1C2=O (stereo not drawn)
*A* > 100 µM

*Q* Next compound up: CCCCCN(CCCCC)C(=O)[C@@H](CCC(=O)OCc1ccccc1)NC(=O)c1cc2ccccc2[nH]1
*A* > 100 µM
